Ok so here's the combined literature set: IC50 for Receptor-type tyrosine-protein kinase FLT3 (Homo sapiens).

Use these answered entries as a reference point.
molecule | tested_system | reported_value
COC[C@H](C)Nc1ncc2c(-c3cnn(C4CN(CC(F)(F)F)C4)c3)cc([C@H]3CC[C@H](O)CC3)n2n1 | Receptor-type tyrosine-protein kinase FLT3 (Homo sapiens) | 100 to 1000 nM
CN1CCN(c2ccc3[nH]c(-c4cc(-c5ccc(NC(=O)Nc6ccc(Cl)c(C(F)(F)F)c6)cc5)[nH]n4)nc3c2)CC1 | Receptor-type tyrosine-protein kinase FLT3 (Homo sapiens) | < 50 nM
COC[C@H](C)Nc1ncc2c(OC3CCOCC3)ncc([C@H]3CC[C@@](O)(C(F)(F)F)CC3)c2n1 | Receptor-type tyrosine-protein kinase FLT3 (Homo sapiens) | 1000 to 10000 nM

Q: Using the record for "CCc1nc2c(N)ncc(-c3cnn(C4CCN(CCO)CC4)c3)c2nc1N[C@@H]1CC[C@H](O)C1" , report its IC50.
A: ≤ 10 nM

Q: Try the molecule "CCc1nc2c(N)ncc(-c3cnn(C4CCN(c5cccnn5)CC4)c3)c2nc1N[C@@H]1CC[C@H](O)C1"
A: ≤ 10 nM

Q: Further, for "COC[C@H](C)Nc1ncc2c(-c3ccc(C(=O)N4CCN(C)CC4)nc3)cc([C@H]3CC[C@H](O)CC3)n2n1" ?
A: 100 to 1000 nM

Q: Repeat with COC[C@H](C)Nc1ncc2c(-c3cnn(C(C)(C)C(=O)C4CCc5sc(C)nc5C4)c3)cc([C@H]3CC[C@H](O)CC3)n2n1 (some centres unmarked)
A: 1000 to 10000 nM

Q: One more molecule: "COC[C@H](C)Nc1ncc2c(-c3cnn(Cc4cncc(C)n4)c3)cc([C@H]3CC[C@H](O)CC3)n2n1"
A: 100 to 1000 nM

----------
Multiple publications report IC50 for Receptor-type tyrosine-protein kinase FLT3 (Homo sapiens, UniProt P36888); what follows is a combined list.

compound | reported_value
CCCC(C)Nc1ncc2c(OC3CCOCC3)ncc([C@H]3CC[C@H](O)CC3)c2n1 (stereo partly drawn) | 1 to 10 µM
COC[C@H](C)Nc1ncc2c([C@@H]3CCCN(c4ccnc(C)n4)C3)cc([C@H]3CC[C@H](O)CC3)n2n1 | 1 to 10 µM
COC[C@H](C)Nc1ncc2c(OC3CCOCC3)ncc(-c3ccc(C4CCN(C)CC4)cc3)c2n1 | 1 to 10 µM
CC1(Nc2ncc3c(OC4CCOCC4)ncc(-c4cccc(S(=O)(=O)N5CCC5)c4)c3n2)CC1 | 1 to 10 µM
CCCCNc1ncc2c(OC)ncc([C@H]3CC[C@H](O)CC3)c2n1 | ≤ 0.1 µM

Q: Item "Cc1cccc(Nc2ncc3c(OC4CCNCC4)ncc([C@H]4CC[C@H](O)CC4)c3n2)c1" has what recorded IC50?
A: 0.1 to 1 µM

Q: # repeat for "O=C(NC(=O)c1ccccc1F)Nc1ccc2c(c1)NC(=O)/C2=C\c1ccc[nH]1"
A: > 1 µM

Q: Let us now turn to "CCc1ccc(Nc2ncc(Cc3c[nH]c4ncc(C)cc34)cn2)cc1"
A: < 0.01 µM

Q: # repeat for "COc1cc(C#Cc2ccc(NC(=O)Nc3cc(C(C)(C)C)on3)cc2)ccc1OCCCN1CCOCC1"
A: 0.11 µM
